Target: T1, human RANKL protein (Sino Biological, 11682-HNCH) (human, UniProt O14788 136-317, limits assumed)
T1 construct: Bought protein
T1 sequence (looked up): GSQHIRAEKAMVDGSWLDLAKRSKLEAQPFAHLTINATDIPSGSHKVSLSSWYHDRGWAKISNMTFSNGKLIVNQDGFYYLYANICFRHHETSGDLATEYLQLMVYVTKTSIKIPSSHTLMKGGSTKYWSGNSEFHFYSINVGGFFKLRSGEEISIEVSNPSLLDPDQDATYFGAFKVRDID
Assay: SPR (Biacore), antibody captured on Protein A chip, RANKL in flow, 1:1 fit
Kd values, listed per item

binder	measurement units	Kd
3-20L (antibody, IgG4, V domains shown, Variable regions fused to human constant regions) VH: EVQLLESGGGLVQPGGSLRLSCAASGFTFSSYAMSWVRQAPGKGLEWVSGITGSGGSTYYADSVKGRFTISRDNSKNTLYLQMNSLRAEDTAVYYCAKDPGTTVIMSWFDPWGQGTLVTVSS VL: EIVLTQSPGTLSLSPGERATLSCRASQAIRGPNLAWYQQKPGQAPRLLIYDTSSRATGIPDRFSGSGSGTDFTLTISRLEPEDFAVFYCQQYGSSPRTFGQGTKVEIK	nM	13.5
3-85L (antibody, V domains shown, Variable regions fused to human constant regions) VH: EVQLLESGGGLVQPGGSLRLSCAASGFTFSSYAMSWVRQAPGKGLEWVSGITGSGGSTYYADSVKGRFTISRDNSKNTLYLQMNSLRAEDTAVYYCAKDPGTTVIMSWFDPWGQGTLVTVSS VL: EIVLTQSPGTLSLSPGERATLSCRASQSIPGPRLAWYQQKPGQAPRLLIYGASSRATGIPDRFSGSGSGTDFTLTISRLEPEDFAVFYCQQYGSSPRTFGQGTKVEIK	nM	22.3
2-72L (antibody, V domains shown, Variable regions fused to human constant regions) VH: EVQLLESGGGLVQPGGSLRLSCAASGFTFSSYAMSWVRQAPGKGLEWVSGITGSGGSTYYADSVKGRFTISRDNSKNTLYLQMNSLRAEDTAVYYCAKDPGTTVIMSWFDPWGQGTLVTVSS VL: EIVLTQSPGTLSLSPGERATLSCRASQSLGARGLAWYQQKPGQAPRLLIYGTSSRATGIPDRFSGSGSGTDFTLTISRLEPEDFAVFYCQQYGSSPRTFGQGTKVEIK	nM	19
2-52L (antibody, V domains shown, Variable regions fused to human constant regions) VH: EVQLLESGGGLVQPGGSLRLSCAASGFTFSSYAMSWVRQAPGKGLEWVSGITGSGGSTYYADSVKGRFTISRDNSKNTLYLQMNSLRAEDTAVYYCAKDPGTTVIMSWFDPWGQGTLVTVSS VL: EIVLTQSPGTLSLSPGERATLSCRASQSVRGRYLAWYQQKPGQAPRLLIYQGSSRATGIPDRFSGSGSGTDFTLTISRLEPEDFAVFYCQQYGSSPRTFGQGTKVEIK	nM	14.2
5-58H (antibody, V domains shown, Variable regions fused to human constant regions) VH: EVQLLESGGGLVQPGGSLRLSCAASGFTFSSYAMSWVRQAPGKGLEWVSGITGSGGSTYYADSVKGRFTISRDNSKNTLYLQMNSLRAEDTAVYYCVQDPGFTYIMSWFDPWGQGTLVTVSS VL: EIVLTQSPGTLSLSPGERATLSCRASQSVRGRYLAWYQQKPGQAPRLLIYGASSRATGIPDRFSGSGSGTDFTLTISRLEPEDFAVFYCQQYGSSPRTFGQGTKVEIK	nM	41
5-16H (antibody, V domains shown, Variable regions fused to human constant regions) VH: EVQLLESGGGLVQPGGSLRLSCAASGFTFSSYAMSWVRQAPGKGLEWVSGITGSGGSTYYADSVKGRFTISRDNSKNTLYLQMNSLRAEDTAVYYCAKDPASIVIMSWFDPWGQGTLVTVSS VL: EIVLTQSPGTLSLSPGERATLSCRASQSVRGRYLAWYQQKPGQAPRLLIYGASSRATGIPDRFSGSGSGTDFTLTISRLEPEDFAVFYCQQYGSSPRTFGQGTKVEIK	nM	8.91
2-76L (antibody, IgG4, V domains shown, Variable regions fused to human constant regions) VH: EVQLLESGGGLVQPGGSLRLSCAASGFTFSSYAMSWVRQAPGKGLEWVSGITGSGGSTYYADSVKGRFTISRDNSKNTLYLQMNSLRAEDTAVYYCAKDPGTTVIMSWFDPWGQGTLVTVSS VL: EIVLTQSPGTLSLSPGERATLSCRASQAIPYNQLAWYQQKPGQAPRLLIYGVSSRATGIPDRFSGSGSGTDFTLTISRLEPEDFAVFYCQQYGSSPRTFGQGTKVEIK	nM	20.3
3-37L (antibody, IgG4, V domains shown, Variable regions fused to human constant regions) VH: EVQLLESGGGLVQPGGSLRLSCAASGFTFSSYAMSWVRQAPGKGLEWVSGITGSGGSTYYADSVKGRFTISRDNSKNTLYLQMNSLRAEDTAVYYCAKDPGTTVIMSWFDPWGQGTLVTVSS VL: EIVLTQSPGTLSLSPGERATLSCRASQAIRGRKLAWYQQKPGQAPRLLIYDTSSRATGIPDRFSGSGSGTDFTLTISRLEPEDFAVFYCQQYGSSPRTFGQGTKVEIK	nM	19.7
4-64L (antibody, V domains shown, Variable regions fused to human constant regions) VH: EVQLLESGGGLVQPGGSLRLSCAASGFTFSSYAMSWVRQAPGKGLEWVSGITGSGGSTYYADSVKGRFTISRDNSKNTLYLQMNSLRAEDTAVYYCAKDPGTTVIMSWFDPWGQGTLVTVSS VL: EIVLTQSPGTLSLSPGERATLSCRASQSVRGRYLAWYQQKPGQAPRLLIYGASSRATGIPDRFSGSGSGTDFTLTISRLEPEDFAVFYCQQYGSSPRIFGQGTKVEIK	nM	17.1
1-22H (antibody, V domains shown, Variable regions were fused to human heavy and light chain constant regions to form complete chains) VH: EVQLLESGGGLVQPGGSLRLSCAASGFTFADYAMSWVRQAPGKGLEWVSGISASGSSTYYADSVKGRFTISRDNSKNTLYLQMNSLRAEDTAVYYCAKDPGTTVIMSWFDPWGQGTLVTVSS VL: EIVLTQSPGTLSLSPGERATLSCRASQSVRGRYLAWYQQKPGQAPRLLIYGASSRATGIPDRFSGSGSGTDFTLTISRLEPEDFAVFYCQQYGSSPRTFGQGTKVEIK	nM	9.81
